Collected set of Ki measured with Bacterial leucyl aminopeptidase (Vibrio proteolyticus) across studies.
Sequence (Q01693 whole entry): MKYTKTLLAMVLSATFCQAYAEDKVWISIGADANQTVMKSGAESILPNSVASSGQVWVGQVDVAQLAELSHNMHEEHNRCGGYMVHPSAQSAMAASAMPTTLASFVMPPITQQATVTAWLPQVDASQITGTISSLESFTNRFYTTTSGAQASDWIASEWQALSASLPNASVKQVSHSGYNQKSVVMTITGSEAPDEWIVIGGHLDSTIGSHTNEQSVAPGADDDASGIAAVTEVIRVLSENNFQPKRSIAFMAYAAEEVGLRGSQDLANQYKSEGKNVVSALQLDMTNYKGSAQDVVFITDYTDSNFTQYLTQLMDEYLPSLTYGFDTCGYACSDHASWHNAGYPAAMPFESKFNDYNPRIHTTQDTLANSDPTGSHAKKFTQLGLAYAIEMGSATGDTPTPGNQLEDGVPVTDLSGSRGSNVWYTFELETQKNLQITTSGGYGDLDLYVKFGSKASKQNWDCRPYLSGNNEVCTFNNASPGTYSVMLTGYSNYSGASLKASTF

COMPOUND: NC1CCc2ccccc2CC1=O (racemic)
Ki: 900 µM

COMPOUND: NC1CCc2c(cccc2-c2ccccc2)CC1=O (racemic)
Ki: > 100 µM

COMPOUND: N[C@@H]1[C@H](O)Cc2ccccc2C[C@@H]1O
Ki: 78 µM

COMPOUND: CC(C)C[C@@H](N)C(=O)NO
Ki: 0.002 µM

Find the recorded Ki belonging to CC(C)C[C@H](N)C(=O)NO and report it. 0.35 µM
